# System: HEK-293T
# procedure-text: Multiplex assay against HEK293T
# Format: toxicity, cell-based
# condition-details: human, 12 h, 1 µM, compound concentration 1 uM, replicate 1
readout-type: Population Mitochondria Different-Phenotype (%)

{"molecule": "CCn1cc(-c2ccnc3[nH]c(-c4cccc(CN(C)C)c4)cc23)c(-c2ccc(NC(=O)N(C)C)cc2)n1 [GSK-1070916]", "value": 9}
{"molecule": "CN[C@@H]1C[C@H]2O[C@@](C)([C@@H]1OC)n1c3ccccc3c3c4c(c5c6ccccc6n2c5c31)C(=O)NC4 [STAUROSPORINE]", "value": 9}
{"molecule": "COc1ccc(S(=O)(=O)N(CCO)c2ccccc2CN(C)C/C=C/c2ccc(Cl)cc2)cc1.O=P(O)(O)O", "value": 79}
{"molecule": "Cc1cc(C)c(S(=O)(=O)N(Cc2ccc(-c3cccc(S(C)(=O)=O)c3)cc2)Cc2ccc(C(F)(F)F)o2)c(C)c1", "value": 81}

###

# Test system: Fibroblast
# procedure-text: Multiplex assay against human fibroblast
# Type: toxicity, cell-based
# condition-details: 12 h, 10 µM, compound concentration 10 uM, replicate 1
Response key: 1.0 means Population Mitochondria Different-Phenotype (%) >= 10%; 0.0 means Population Mitochondria Different-Phenotype (%) < 10%.

{"compound": "Cc1ccc(C(=O)Nc2cccc(C(F)(F)F)c2)cc1Nc1nc(-c2cccnc2)nc2c1cnn2C", "group-label": 1.0}
{"compound": "O=C(Nc1cccnn1)N1CCC(=Cc2cccc(Oc3ccc(C(F)(F)F)cn3)c2)CC1", "group-label": 0.0}
{"compound": "C=C1/C(=C\\C=C2/CCC[C@]3(C)[C@@H]([C@H](C)/C=C/[C@H](C)C(C)C)CC[C@@H]23)C[C@@H](O)C[C@@H]1O [DOXERCALCIFEROL]", "group-label": 1.0}
{"compound": "CCOC(=O)c1c(C)[nH]c2ccc3c(c12)CN1CCc2cc(OC)ccc2C1O3 (stereo unspecified)", "group-label": 1.0}
{"compound": "CCCS(=O)(=O)c1nc(NC2CC2)cc(-c2ccc3c(ccn3C3CC(C)(C)NC(C)(C)C3)c2)n1", "group-label": 0.0}
{"compound": "CN1C2CCC1CC(OC(c1ccc(F)cc1)c1ccc(F)cc1)C2.Cl (stereo unspecified)", "group-label": 1.0}
{"compound": "Cl.O=c1c2cccn2c2ccccc2n1CCCN1CCC(c2ccc(Cl)cc2)CC1", "group-label": 1.0}
{"compound": "Cl.Oc1ccc2c3c1O[C@H]1c4[nH]c5c(c4C[C@@]4(O)[C@@H](C2)N(CC2CC2)CC[C@]314)C[C@@]1(O)[C@H]2Cc3ccc(O)c4c3[C@@]1(CCN2CC1CC1)[C@H]5O4", "group-label": 0.0}
{"compound": "COc1ccc(S(=O)(=O)N(CCO)c2ccccc2CN(C)C/C=C/c2ccc(Cl)cc2)cc1.O=P(O)(O)O", "group-label": 0.0}
{"compound": "CNc1cc(Oc2cc(C(=O)Nc3cc(N4CCN(C)CC4)cc(C(F)(F)F)c3)ccc2C)ncn1", "group-label": 1.0}
{"compound": "CN1CCN(C(=O)C(C)(C)c2ccc(C(=O)Nc3cn4cc(-c5ccncc5)ccc4n3)cc2)CC1 [T3-CLK]", "group-label": 0.0}
{"compound": "O=C1N/C(=N/c2ccccc2F)S/C1=C\\c1ccc(C(=O)O)cc1", "group-label": 0.0}
{"compound": "O=C(Nc1ccc(-n2nc(-c3cccnc3)cc2C(F)(F)F)cn1)c1ccc(-c2ccccc2)c(F)c1 [BI 2049]", "group-label": 1.0}
{"compound": "CCc1cccc(CC)c1NC(=O)c1nn(C)c2c1CCc1cnc(Nc3ccc(N4CCN(C)CC4)cc3OC)nc1-2", "group-label": 1.0}
{"compound": "CN1CCN(C(=O)C(C)(C)c2ccc(C(=O)Nc3cn4cc(-c5cc(C(C)(C)C)cc(C(C)(C)C)c5)ccc4n3)cc2)CC1 [T3-CLK-N]", "group-label": 0.0}
{"compound": "CN(C)C(=O)C(CCN1CCC(O)(c2ccc(Cl)cc2)CC1)(c1ccccc1)c1ccccc1.Cl [LOPERAMIDE HYDROCHLORIDE]", "group-label": 1.0}

###

Below, each of the compounds is paired with its reported Population Fragmented Nuclei (%) value.
# Test system: U2OS
# procedure-text: Multiplex assay against U2OS
# Assay type: toxicity, cell-based
# condition-details: human, 24 h, 1 µM, compound concentration 1 uM, replicate 1

{"smiles-notation": "CCNc1cc(N[C@H]2CC[C@H](O)CC2)nc(Nc2ccc3c(ccn3Cc3ccccc3)c2)n1", "value-units": "%", "Population Fragmented Nuclei (%)": 9}
{"smiles-notation": "Cl.O=c1c2cccn2c2ccccc2n1CCCN1CCC(c2ccc(Cl)cc2)CC1", "value-units": "%", "Population Fragmented Nuclei (%)": 9}
{"smiles-notation": "CN1CCN(C(=O)C(C)(C)c2ccc(C(=O)Nc3cn4cc(-c5cc(C(C)(C)C)cc(C(C)(C)C)c5)ccc4n3)cc2)CC1", "value-units": "%", "Population Fragmented Nuclei (%)": 9}

###

# Tested on: HEK-293T
# procedure-text: Multiplex assay against HEK293T
# Type: toxicity, cell-based
# condition-details: human, 12 h, 10 µM, compound concentration 10 uM, replicate 1
Below, each of the molecules is paired with its reported Population Mitotic Cells (%) value.
readout-type: Population Mitotic Cells (%)

{"molecule": "CN1CCN(C(=O)C(C)(C)c2ccc(C(=O)Nc3cn4cc(-c5cc(C(C)(C)C)cc(C(C)(C)C)c5)ccc4n3)cc2)CC1", "readout-type": "Population Mitotic Cells (%)", "value-units": "%", "value": 78}
{"molecule": "Cc1cc(C)c(S(=O)(=O)N(Cc2ccc(-c3cccc(S(C)(=O)=O)c3)cc2)Cc2ccc(C(F)(F)F)o2)c(C)c1", "readout-type": "Population Mitotic Cells (%)", "value-units": "%", "value": 47}
{"molecule": "CCOC(=O)c1c(C)[nH]c2ccc3c(c12)CN1CCc2cc(OC)ccc2C1O3 (stereo not given)", "readout-type": "Population Mitotic Cells (%)", "value-units": "%", "value": 9}
{"molecule": "COc1ccc(-c2ccc3c(N4CCOCC4)nc(N4C[C@@H](C)O[C@@H](C)C4)nc3n2)cc1CO", "readout-type": "Population Mitotic Cells (%)", "value-units": "%", "value": 58}
{"molecule": "COCC(=O)NC/C=C/c1ccc2ncnc(Nc3ccc(Oc4ccc(C)nc4)c(C)c3)c2c1", "readout-type": "Population Mitotic Cells (%)", "value-units": "%", "value": 33}

###

# Test system: Fibroblast
# procedure-text: Multiplex assay against human fibroblast
# Type: toxicity, cell-based
# condition-details: 12 h, 10 µM, compound concentration 10 uM, replicate 1
Population Apoptotic (%) under 70% gets 1 (yes), anything at or over 70% gets 0 (no).

{"molecule": "CN1CCN(C(=O)C(C)(C)c2ccc(C(=O)Nc3cn4cc(-c5cc(C(C)(C)C)cc(C(C)(C)C)c5)ccc4n3)cc2)CC1 [T3-CLK-N]", "tested-on": "Fibroblast", "group-label": "0 (no)"}
{"molecule": "Cn1nc(C(F)(F)F)cc1-c1cnc(N2CCc3cc(S(=O)(=O)Nc4c(F)cc(Cl)cc4F)cc(N4CCCC4=O)c32)nc1 [TP-020]", "tested-on": "Fibroblast", "group-label": "1 (yes)"}
{"molecule": "O=C1N/C(=N/c2ccccc2F)S/C1=C\\c1ccc(C(=O)O)cc1", "tested-on": "Fibroblast", "group-label": "1 (yes)"}

###

# Test system: Fibroblast
# procedure-text: Multiplex assay against human fibroblast
# Type: toxicity, cell-based
# condition-details: 24 h, 1 µM, compound concentration 1 uM, replicate 1
Population Mitochondria Different-Phenotype (%) under 6% gets label 1, anything at or over 6% gets label 0.

{"smiles-notation": "Cc1ccc(C(=O)Nc2cccc(C(F)(F)F)c2)cc1Nc1nc(-c2cccnc2)nc2c1cnn2C", "group-label": "label 1"}
{"smiles-notation": "CCCn1c(=O)c2[nH]c(-c3cnn(Cc4cccc(C(F)(F)F)c4)c3)nc2n(CC)c1=O", "group-label": "label 0"}
{"smiles-notation": "Cl.O=c1c2cccn2c2ccccc2n1CCCN1CCC(c2ccc(Cl)cc2)CC1", "group-label": "label 0"}
{"smiles-notation": "CN1CCN(C(=O)C(C)(C)c2ccc(C(=O)Nc3cn4cc(-c5cc(C(C)(C)C)cc(C(C)(C)C)c5)ccc4n3)cc2)CC1", "group-label": "label 1"}
{"smiles-notation": "CCCS(=O)(=O)c1nc(NC2CC2)cc(-c2ccc3c(ccn3C3CC(C)(C)NC(C)(C)C3)c2)n1", "group-label": "label 0"}
{"smiles-notation": "Cn1nc(C(F)(F)F)cc1-c1cnc(N2CCc3cc(S(=O)(=O)Nc4c(F)cc(Cl)cc4F)cc(N4CCCC4=O)c32)nc1", "group-label": "label 1"}
{"smiles-notation": "CCOc1cc2ncc(C#N)c(Nc3ccc(OCc4ccccn4)c(Cl)c3)c2cc1NC(=O)/C=C/CN(C)C", "group-label": "label 0"}

FYI, the data here is from ChEMBL document CHEMBL4689842.
